Test system: NCI-H460
Assay: relative viability (nuclei count vs DMSO), 5 days (fraction); higher = more cells survive
Conditions: first compound 0.04 µM
relative viability values for the molecules below.
Respond with the number and no other words.

# value lookup — system NCI-H460, readout relative viability, item O=C(O)c1ccc(-c2c[nH]c3ncc(-c4ccccc4)cc23)cc1C1CCCC1 + C[C@]1(O)C[C@@H](c2nc(-c3ccc4ccc(-c5ccccc5)nc4c3)c3c(N)nccn32)C1 [Linsitinib] (partner 1 µM)
0.783

Lookup O=C(O)c1ccc(-c2c[nH]c3ncc(-c4ccccc4)cc23)cc1C1CCCC1 + CCNC(=O)c1noc(-c2cc(C(C)C)c(O)cc2O)c1-c1ccc(CN2CCOCC2)cc1 [Luminespib] (partner 0.01 µM)
0.0285

Same for O=C(O)c1ccc(-c2c[nH]c3ncc(-c4ccccc4)cc23)cc1C1CCCC1 + CC1(C)CCC(c2ccc(Cl)cc2)=C(CN2CCN(c3ccc(C(=O)NS(=O)(=O)c4ccc(N[C@H](CCN5CCOCC5)CSc5ccccc5)c(S(=O)(=O)C(F)(F)F)c4)cc3)CC2)C1 [Navitoclax] (partner 0.5 µM)
1.08

Same again, this time with O=C(O)c1ccc(-c2c[nH]c3ncc(-c4ccccc4)cc23)cc1C1CCCC1 + CC(C)C[C@H](NC(=O)[C@H](Cc1ccccc1)NC(=O)c1cnccn1)B(O)O [Bortezomib] (partner 0.002 µM)
1.07

Now consider O=C(O)c1ccc(-c2c[nH]c3ncc(-c4ccccc4)cc23)cc1C1CCCC1 + Nc1ncn([C@H]2C[C@H](O)[C@@H](CO)O2)c(=O)n1 [Decitabine] (partner 2 µM) .
0.521

These data points were gathered from the supplement of paper PMC10307832.
